# Tested on: Staphylococcus aureus
# assay: Antimicrobial activity against Staphylococcus aureus ATCC 13709a
# Assay type: functional
Here, each record is paired with measured Activity data.
Quick reminder: number only, in µg/mL, skip the unit.

Recorded results for 3 compounds are shown here.
> print(dat)
                           substance.smiles  numeric.value
1  COc1cc2c3cc1Oc1c(OC)c(OC)c(OC)c4c1[C@H](Cc1ccc(cc1)Oc1cc(ccc1O)C[C@@H]3N(C)CC2)N(C)CC4           1000
2  COc1cc(CCN(C)C)c2ccc3cc4c(cc3c2c1OC)OCO4            100
3  COc1cc2c3c(c1O)Oc1c4c(cc(OC)c1OC)[C@H](Cc1ccc(cc1)Oc1cc(ccc1O)C[C@@H]3N(C)CC2)N(C)CC4           1000

// next entry
Ask: Record lookup: for Staphylococcus aureus, what Activity belongs to COc1cc2c(cc1O)[C@H](Cc1ccc(OC)c(Oc3ccc(C[C@H]4c5cc(OC)c(OC)cc5CCN4C)cc3)c1)N(C)CC2 ?
Reply: 1000
